- Test system: Serine/threonine-protein kinase B-raf (Homo sapiens), P15056 [V600E];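 also: enzyme inhibition of the BRAF V599E mutant kinase, given as mean percent inhibition, screened within the GSK PKIS kinase inhibitor set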
- Sequence (P15056 whole entry V600E): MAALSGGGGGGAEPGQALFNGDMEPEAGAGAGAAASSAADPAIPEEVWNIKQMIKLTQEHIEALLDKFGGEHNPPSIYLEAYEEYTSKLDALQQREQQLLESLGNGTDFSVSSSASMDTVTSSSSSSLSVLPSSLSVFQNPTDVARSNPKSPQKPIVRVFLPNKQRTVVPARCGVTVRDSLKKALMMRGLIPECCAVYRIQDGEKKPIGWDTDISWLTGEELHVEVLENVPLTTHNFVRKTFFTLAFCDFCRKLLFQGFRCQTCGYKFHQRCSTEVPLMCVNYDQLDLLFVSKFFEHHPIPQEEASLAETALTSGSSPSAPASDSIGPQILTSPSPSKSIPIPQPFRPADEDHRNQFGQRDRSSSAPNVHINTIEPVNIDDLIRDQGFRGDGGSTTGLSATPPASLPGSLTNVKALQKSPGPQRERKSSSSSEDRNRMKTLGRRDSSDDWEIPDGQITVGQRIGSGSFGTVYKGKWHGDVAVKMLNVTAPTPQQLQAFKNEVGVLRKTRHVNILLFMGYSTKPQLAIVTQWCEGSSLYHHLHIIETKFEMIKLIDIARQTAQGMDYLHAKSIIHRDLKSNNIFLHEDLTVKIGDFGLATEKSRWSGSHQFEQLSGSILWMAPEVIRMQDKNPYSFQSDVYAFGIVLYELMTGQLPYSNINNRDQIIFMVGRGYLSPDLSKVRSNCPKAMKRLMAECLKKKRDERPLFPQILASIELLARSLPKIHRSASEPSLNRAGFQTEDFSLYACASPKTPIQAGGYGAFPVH
- Assay Context: at 1 µM
- Description: GSK_PKIS: BRAF (V599E mutant) mean inhibition at 1 uM [Nanosyn]
Assign inhibition to each entry below.
Provide the reading as a plain figure in %.

Reported Serine/threonine-protein kinase B-raf (Homo sapiens), P15056 [V600E] inhibition for item `Nc1nonc1-c1nc2cnccc2n1C1CCCCC1` was 5.12

Reported Serine/threonine-protein kinase B-raf (Homo sapiens), P15056 [V600E] inhibition for item `COc1cccc(COc2cc(-n3cnc4ccccc43)sc2C(N)=O)c1` was 1.75

Reported Serine/threonine-protein kinase B-raf (Homo sapiens), P15056 [V600E] inhibition for item `CCn1c(-c2nonc2N)nc2c(C#CC(C)(C)O)nc(O[C@@H](CN)c3ccccc3)cc21` was 6.51

Reported Serine/threonine-protein kinase B-raf (Homo sapiens), P15056 [V600E] inhibition for item `Fc1ccc(-c2ncn(C3CCNCC3)c2-c2ccnc(Oc3ccccc3)n2)cc1` was 4.15

Reported Serine/threonine-protein kinase B-raf (Homo sapiens), P15056 [V600E] inhibition for item `Cc1cc(-c2ccco2)cc(C)c1/C=C/c1cncc(-c2nn[nH]n2)c1` was 3

Reported Serine/threonine-protein kinase B-raf (Homo sapiens), P15056 [V600E] inhibition for item `COc1cccc(-n2ncc3c(N/N=C/c4ccncc4)ncnc32)c1` was 23.1

Reported Serine/threonine-protein kinase B-raf (Homo sapiens), P15056 [V600E] inhibition for item `CCn1c(-c2nonc2N)nc2c(C#CC(C)(C)O)ncc(OCC3CCNCC3)c21` was 2.64

Reported Serine/threonine-protein kinase B-raf (Homo sapiens), P15056 [V600E] inhibition for item `NC(=O)c1sc(-n2cnc3cc(C(F)(F)F)ccc32)cc1OCc1ccccc1Br` was 2.01

Reported Serine/threonine-protein kinase B-raf (Homo sapiens), P15056 [V600E] inhibition for item `CCn1c(-c2nonc2N)nc2c(C#CC(C)(C)O)ncc(OC[C@@H]3CCCN3)c21` was 0.05

Reported Serine/threonine-protein kinase B-raf (Homo sapiens), P15056 [V600E] inhibition for item `COc1cc(C=NNc2ncnc3c2cnn3Cc2ccccc2)ccc1O` was -4.22

###

Assign inhibition to each entry below.
- Experimental Target: Dual specificity tyrosine-phosphorylation-regulated kinase 2 (Homo sapiens);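 also: reported values are means of DYRK2 inhibition from screening the GSK PKIS collection at 1 µM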
- Assay Context: at 1 µM
Provide the reading as a plain figure in %.

// `Nc1nonc1-c1nc2cnccc2n1C1CCCCC1` : inhibition value = -0.12

// `CCn1c(-c2nonc2N)nc2c(C#CC(C)(C)O)nc(O[C@@H](CN)c3ccccc3)cc21` : inhibition value = 0.08

// `Fc1ccc(-c2ncn(C3CCNCC3)c2-c2ccnc(Oc3ccccc3)n2)cc1` : inhibition value = 0.78

// `CCn1c(-c2nonc2N)nc2c(C#CCN)ncc(OCCCN)c21` : inhibition value = -1.66

// `NS(=O)(=O)c1ccc(-c2ccc3c(NC(=O)C4CC4)n[nH]c3c2)cc1` : inhibition value = 3.47

// `NS(=O)(=O)c1ccc(N/C=C2\C(=O)Nc3ccc4ncsc4c32)cc1` : inhibition value = 29

// `CCn1c(-c2nonc2N)nc2c(C#CC(C)(C)O)ncc(OC[C@@H]3CCCN3)c21` : inhibition value = -2.07

###

- Experimental Target: Serine/threonine-protein kinase D2 (Homo sapiens) (UniProt Q9BZL6);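 also: mean value of PRKD2 inhibition, from the GSK PKIS screening panel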
- Sequence (whole entry): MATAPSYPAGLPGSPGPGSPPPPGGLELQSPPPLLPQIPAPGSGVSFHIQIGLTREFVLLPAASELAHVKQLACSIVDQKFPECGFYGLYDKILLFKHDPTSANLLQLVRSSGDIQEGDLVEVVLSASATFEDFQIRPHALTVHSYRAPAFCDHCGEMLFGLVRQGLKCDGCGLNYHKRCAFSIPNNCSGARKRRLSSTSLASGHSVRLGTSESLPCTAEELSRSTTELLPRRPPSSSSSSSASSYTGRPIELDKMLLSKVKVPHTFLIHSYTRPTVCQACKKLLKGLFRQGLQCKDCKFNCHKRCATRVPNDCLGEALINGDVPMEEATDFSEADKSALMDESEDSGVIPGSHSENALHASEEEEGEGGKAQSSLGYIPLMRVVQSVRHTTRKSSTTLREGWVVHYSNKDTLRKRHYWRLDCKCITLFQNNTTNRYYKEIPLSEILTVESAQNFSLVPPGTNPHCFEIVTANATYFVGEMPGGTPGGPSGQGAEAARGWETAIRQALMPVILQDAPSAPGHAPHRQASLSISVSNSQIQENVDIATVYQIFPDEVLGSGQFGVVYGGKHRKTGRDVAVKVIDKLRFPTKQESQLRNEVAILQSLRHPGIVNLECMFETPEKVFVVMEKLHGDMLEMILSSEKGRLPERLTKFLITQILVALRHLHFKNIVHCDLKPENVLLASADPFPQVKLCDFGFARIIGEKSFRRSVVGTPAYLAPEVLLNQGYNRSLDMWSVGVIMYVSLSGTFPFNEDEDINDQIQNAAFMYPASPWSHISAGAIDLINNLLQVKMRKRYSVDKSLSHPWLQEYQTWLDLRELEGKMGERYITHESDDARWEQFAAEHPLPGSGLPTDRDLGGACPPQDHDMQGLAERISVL
- Assay Context: at 1 µM
Reported Property: inhibition (%)
Provide the reading as a plain figure in %.

// `CCn1c(-c2nonc2N)nc2c(C#CCN)ncc(OCCCN)c21` : inhibition value = 0.48

// `COc1cc(C=NNc2ncnc3c2cnn3Cc2ccccc2)ccc1O` : inhibition value = 1

// `COc1cccc(-n2ncc3c(N/N=C/c4ccncc4)ncnc32)c1` : inhibition value = 9.06

// `Cc1cc(-c2ccco2)cc(C)c1/C=C/c1cncc(-c2nn[nH]n2)c1` : inhibition value = 2.37

// `Nc1nonc1-c1nc2cnccc2n1C1CCCCC1` : inhibition value = 4.59

// `Fc1ccc(-c2ncn(C3CCNCC3)c2-c2ccnc(Oc3ccccc3)n2)cc1` : inhibition value = 4.29

// `NC(=O)c1sc(-n2cnc3cc(C(F)(F)F)ccc32)cc1OCc1ccccc1Br` : inhibition value = 2.17
